Assign photoluminescence quantum yield to each entry below.
test: photoluminescence quantum yield (fraction); solvent given as SMILES; conditions: in CS(C)=O
One number for each entry.

[ask] So what's the measured photoluminescence quantum yield for this one? NS(=O)(=O)c1ccc(N2N=C(c3ccc(O)cc3)CC2c2ccccc2)cc1 (stereo not drawn)
[reply] 0.7

Field: photoluminescence quantum yield. Fill in for each record below.
1. COc1cnc(-c2cc[n+](C3=C(F)C(F)(F)C(F)(F)[C-]3F)cc2)s1
2. CCC1(CC)c2cc(C=O)ccc2-c2ccc(N(C)C)cc21
3. Brc1ccc2cc3c4ccccc4nc(-c4ccco4)c3n2c1
4. CCN1c2ccc(/C=N/Nc3ccccn3)cc2Sc2cc(/C=N/Nc3ccccn3)ccc21
5. COc1cc(-c2nc3sc4ccccc4c3s2)cc(OC)c1OC
6. CCCCCCCCC1(CCCCCCCC)c2cc(-c3ccc(C(F)(F)F)cc3)ccc2-c2ccc(N(c3ccc(-n4c5ccccc5c5ccccc54)cc3)c3ccc4c(c3)C(CCCCCCCC)(CCCCCCCC)c3cc(-c5ccc(C(F)(F)F)cc5)ccc3-4)cc21

[reply]
1. 0.02
2. 0.92
3. 0.03
4. 0.19
5. 0.6
6. 0.47

[ask] Form field: reported photoluminescence quantum yield of CCCCCCCCC1(CCCCCCCC)c2cc(-c3ccc(C=C4C(=O)c5ccccc5C4=O)cc3)ccc2-c2ccc(-c3ccc(C=C4C(=O)c5ccccc5C4=O)cc3)cc21
[reply] 0.245
